# Experimental System: T1, mature human TGF-β1 (human, UniProt P01137 279-390)
# T1 construct: Bought protein (R&D Systems, Cat # 240-B/CF); also called TGF Beta 1; TGF-b1
# T1 sequence (P01137 279-390 limits assumed): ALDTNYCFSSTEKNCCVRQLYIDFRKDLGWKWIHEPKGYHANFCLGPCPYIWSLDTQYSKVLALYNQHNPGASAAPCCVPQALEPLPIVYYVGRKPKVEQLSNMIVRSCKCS
# Protocol Notes: BIAcore 2000 SPR, antibody captured on Protein A, TGF-β injected
# koff per entry
Number only, in s⁻¹; omit the unit.

>>> recorded_measurement("mAb 3.A (antibody, human IgG4 S228P, kappa, V domains shown, Full-length monoclonal antibody, made by linking the Fab to an IgG4 Fc region) VH: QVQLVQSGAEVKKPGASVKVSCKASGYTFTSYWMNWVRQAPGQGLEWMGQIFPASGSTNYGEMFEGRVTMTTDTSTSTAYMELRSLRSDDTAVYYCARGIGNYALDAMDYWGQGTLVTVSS VL: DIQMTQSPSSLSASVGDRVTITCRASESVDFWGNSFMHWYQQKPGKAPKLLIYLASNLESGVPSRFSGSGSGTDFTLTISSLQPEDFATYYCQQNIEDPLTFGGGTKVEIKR")
0.000107

Turning to the following binder.
Return value of koff for input mAb 12.7 (antibody, human IgG4 S228P, kappa, V domains shown, Full-length monoclonal antibody, made by linking the Fab to an IgG4 Fc region) VH: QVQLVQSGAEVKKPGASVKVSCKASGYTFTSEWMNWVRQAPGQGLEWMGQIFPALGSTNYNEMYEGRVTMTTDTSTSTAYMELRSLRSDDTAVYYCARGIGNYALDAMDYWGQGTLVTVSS VL: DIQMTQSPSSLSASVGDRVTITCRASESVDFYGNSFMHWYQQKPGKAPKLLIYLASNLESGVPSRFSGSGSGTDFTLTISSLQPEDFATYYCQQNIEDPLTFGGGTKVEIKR , no commentary.
7.93e-06
